Origin of values: BigSolDB 2.1

Conditions: in acetonitrile, 310.65 K
Measured Property: solubility (mole fraction)
Output spec: single numeric token, no unit.

Asked: So what does the record say about solubility (mole fraction) for `CCOC(=O)Cc1c(C(=O)OCC)sc(N(CC(=O)OCC)CC(=O)OCC)c1C#N` ?
Given back: 0.0515

* * *

Details: in methanol, 318.15 K
Measured Property: solubility (mole fraction)
Output spec: single numeric token, no unit.

Asked: So what does the record say about solubility (mole fraction) for `CCOC(=O)Cc1c(C(=O)OCC)sc(N(CC(=O)OCC)CC(=O)OCC)c1C#N` ?
Given back: 0.015

* * *

Settings: in n-butanol, 300.65 K
Measured Property: solubility (mole fraction)
Output spec: single numeric token, no unit.

Asked: So what does the record say about solubility (mole fraction) for `CCOC(=O)Cc1c(C(=O)OCC)sc(N(CC(=O)OCC)CC(=O)OCC)c1C#N` ?
Given back: 0.00173

* * *

Conditions: in methanol, 305.65 K
Measured Property: solubility (mole fraction)
Output spec: single numeric token, no unit.

Asked: So what does the record say about solubility (mole fraction) for `CCOC(=O)Cc1c(C(=O)OCC)sc(N(CC(=O)OCC)CC(=O)OCC)c1C#N` ?
Given back: 0.00659

* * *

Settings: in acetone, 288.15 K
Measured Property: solubility (mole fraction)
Output spec: single numeric token, no unit.

Asked: So what does the record say about solubility (mole fraction) for `CCOC(=O)Cc1c(C(=O)OCC)sc(N(CC(=O)OCC)CC(=O)OCC)c1C#N` ?
Given back: 0.043

* * *

Conditions: in isopropanol, 283.15 K
Measured Property: solubility (mole fraction)
Output spec: single numeric token, no unit.

Asked: So what does the record say about solubility (mole fraction) for `CCOC(=O)Cc1c(C(=O)OCC)sc(N(CC(=O)OCC)CC(=O)OCC)c1C#N` ?
Given back: 0.000243

* * *

Conditions: in acetonitrile, 308.15 K
Measured Property: solubility (mole fraction)
Output spec: single numeric token, no unit.

Asked: So what does the record say about solubility (mole fraction) for `CCOC(=O)Cc1c(C(=O)OCC)sc(N(CC(=O)OCC)CC(=O)OCC)c1C#N` ?
Given back: 0.0473

* * *

Conditions: in isopropanol, 318.15 K
Measured Property: solubility (mole fraction)
Output spec: single numeric token, no unit.

Asked: So what does the record say about solubility (mole fraction) for `CCOC(=O)Cc1c(C(=O)OCC)sc(N(CC(=O)OCC)CC(=O)OCC)c1C#N` ?
Given back: 0.00413

* * *

Details: in cyclohexane, 285.65 K
Measured Property: solubility (mole fraction)
Output spec: single numeric token, no unit.

Asked: So what does the record say about solubility (mole fraction) for `CCOC(=O)Cc1c(C(=O)OCC)sc(N(CC(=O)OCC)CC(=O)OCC)c1C#N` ?
Given back: 6.04e-05

* * *

Details: in cyclohexane, 308.15 K
Measured Property: solubility (mole fraction)
Output spec: single numeric token, no unit.

Asked: So what does the record say about solubility (mole fraction) for `CCOC(=O)Cc1c(C(=O)OCC)sc(N(CC(=O)OCC)CC(=O)OCC)c1C#N` ?
Given back: 0.000279

* * *

Details: in isopropanol, 288.15 K
Measured Property: solubility (mole fraction)
Output spec: single numeric token, no unit.

Asked: So what does the record say about solubility (mole fraction) for `CCOC(=O)Cc1c(C(=O)OCC)sc(N(CC(=O)OCC)CC(=O)OCC)c1C#N` ?
Given back: 0.000386

* * *

Details: in n-butanol, 315.65 K
Measured Property: solubility (mole fraction)
Output spec: single numeric token, no unit.

Asked: So what does the record say about solubility (mole fraction) for `CCOC(=O)Cc1c(C(=O)OCC)sc(N(CC(=O)OCC)CC(=O)OCC)c1C#N` ?
Given back: 0.00577

* * *

Details: in n-propanol, 303.15 K
Measured Property: solubility (mole fraction)
Output spec: single numeric token, no unit.

Asked: So what does the record say about solubility (mole fraction) for `CCOC(=O)Cc1c(C(=O)OCC)sc(N(CC(=O)OCC)CC(=O)OCC)c1C#N` ?
Given back: 0.00327

* * *

Details: in ethyl acetate, 318.15 K
Measured Property: solubility (mole fraction)
Output spec: single numeric token, no unit.

Asked: So what does the record say about solubility (mole fraction) for `CCOC(=O)Cc1c(C(=O)OCC)sc(N(CC(=O)OCC)CC(=O)OCC)c1C#N` ?
Given back: 0.132

* * *

Conditions: in toluene, 298.15 K
Measured Property: solubility (mole fraction)
Output spec: single numeric token, no unit.

Asked: So what does the record say about solubility (mole fraction) for `CCOC(=O)Cc1c(C(=O)OCC)sc(N(CC(=O)OCC)CC(=O)OCC)c1C#N` ?
Given back: 0.0286

* * *

Conditions: in acetone, 315.65 K
Measured Property: solubility (mole fraction)
Output spec: single numeric token, no unit.

Asked: So what does the record say about solubility (mole fraction) for `CCOC(=O)Cc1c(C(=O)OCC)sc(N(CC(=O)OCC)CC(=O)OCC)c1C#N` ?
Given back: 0.0995

* * *

Details: in acetone, 293.15 K
Measured Property: solubility (mole fraction)
Output spec: single numeric token, no unit.

Asked: So what does the record say about solubility (mole fraction) for `CCOC(=O)Cc1c(C(=O)OCC)sc(N(CC(=O)OCC)CC(=O)OCC)c1C#N` ?
Given back: 0.0498

* * *

Settings: in cyclohexane, 295.65 K
Measured Property: solubility (mole fraction)
Output spec: single numeric token, no unit.

Asked: So what does the record say about solubility (mole fraction) for `CCOC(=O)Cc1c(C(=O)OCC)sc(N(CC(=O)OCC)CC(=O)OCC)c1C#N` ?
Given back: 0.00012

* * *

Conditions: in acetonitrile, 290.65 K
Measured Property: solubility (mole fraction)
Output spec: single numeric token, no unit.

Asked: So what does the record say about solubility (mole fraction) for `CCOC(=O)Cc1c(C(=O)OCC)sc(N(CC(=O)OCC)CC(=O)OCC)c1C#N` ?
Given back: 0.0255

* * *

Conditions: in ethanol, 305.65 K
Measured Property: solubility (mole fraction)
Output spec: single numeric token, no unit.

Asked: So what does the record say about solubility (mole fraction) for `CCOC(=O)Cc1c(C(=O)OCC)sc(N(CC(=O)OCC)CC(=O)OCC)c1C#N` ?
Given back: 0.0032

* * *

Details: in n-butanol, 323.15 K
Measured Property: solubility (mole fraction)
Output spec: single numeric token, no unit.

Asked: So what does the record say about solubility (mole fraction) for `CCOC(=O)Cc1c(C(=O)OCC)sc(N(CC(=O)OCC)CC(=O)OCC)c1C#N` ?
Given back: 0.0102

* * *

Settings: in acetonitrile, 288.15 K
Measured Property: solubility (mole fraction)

Asked: So what does the record say about solubility (mole fraction) for `CCOC(=O)Cc1c(C(=O)OCC)sc(N(CC(=O)OCC)CC(=O)OCC)c1C#N` ?
Given back: 0.0234

* * *

Settings: in acetonitrile, 300.65 K
Measured Property: solubility (mole fraction)
Output spec: single numeric token, no unit.

Asked: So what does the record say about solubility (mole fraction) for `CCOC(=O)Cc1c(C(=O)OCC)sc(N(CC(=O)OCC)CC(=O)OCC)c1C#N` ?
Given back: 0.0365
